- experiment_notes: protein stability index of a GFP-peptide fusion (yeast GPS) (PSI 1-4); higher = more stable; sorted into four equal gates, so the index is relative within each strain
- assay_conditions: pdr5∆
Reported protein stability index is given for each of the following sequences.

Use the examples below as a reference point.
| monomer_sequence | protein stability index |
| --- | --- |
| IWKESLIELSGGQRSLI [SMC2] | 2.12 |
| RLNNVFVIGEQGKPYIS [RPS4A] | 3.02 |
| HTEDTVNESRNSDDIID [SRB5] | 2.52 |
| IIKQTVHPIPDVAFADG [YMR129W/POM152] | 2.89 |
| PIIATYGNRAEQFLETD [SRP68] | 2.48 |
| VDFQNDLKDILEKVVPL [BRR2] | 2.88 |
| CSHIFTSDQKNKRTQFS [RPB9] | 2.72 |
| EIDHQEYSPEILQIREE [RRP6] | 3.06 |

query: Report protein stability index for RLPVSEDTNTKPLFDFG [YOR098C/NUP1] please.
result: 2.76

query: Report protein stability index for KSMGRKCFDDIEPHIFD [YCG1] please.
result: 3.07

query: Report protein stability index for QHQSLSRSSSKNVNIED [ESC2] please.
result: 2.69

----------
- experiment_notes: protein stability index of a GFP-peptide fusion (yeast GPS) (PSI 1-4); higher = more stable; sorted into four equal gates, so the index is relative within each strain
- assay_conditions: san1∆
reported_metric: protein stability index

| monomer_sequence | protein stability index |
| --- | --- |
| LVLNKSSIDRGFGRCET [RET1] | 2.76 |

We now examine a further sequence.
query: Report protein stability index for KNYDATDKPFSSTQDVI [CSI1] please.
result: 2.85

----------
Reported protein stability index is given for each of the following sequences.
- experiment_notes: protein stability index of a GFP-peptide fusion (yeast GPS) (PSI 1-4); higher = more stable; sorted into four equal gates, so the index is relative within each strain
- assay_conditions: pdr5∆
Would you mind answering with just the numeric figure?

| monomer_sequence | protein stability index |
| --- | --- |
| KIQQHNTILNSSSDFRL [BRR2] | 2.89 |
| DRRKARKAYFTAPSSQR [RPL26A] | 2.49 |
| VKEEYDIWQSRDQGNDS [YIL149C/MLP2] | 3.5 |
| CFSINDDPVPTPPAIEH [SSN2] | 2.1 |
| DKKHFNNKNKRVTGAGG [RPC53] | 2.53 |
| FSNVELPQCIIPSSYIK [ARP7] | 2.38 |
| ADKRGVLTGGYLDQHKR [SMC3] | 2.54 |
| FVLLEIEPVTKVSSLKM [YCS4] | 2.18 |

query: Report protein stability index for QQKQQQQQQQHQQQQQQ [SNF5] please.
result: 2.8

query: Report protein stability index for ESRKAFFLGYMINRLLL [RPB2] please.
result: 1.17

query: Report protein stability index for YQEDIFVSESPSFVKSG [ISW2] please.
result: 2.47

query: Report protein stability index for KQRFQGCNNLIKNISNR [ARP9] please.
result: 2.88

query: Report protein stability index for IIMHKDVEIGRMPIMLR [RET1] please.
result: 3.18

query: Report protein stability index for DEFKDITKEVTQVNILK [YIL149C/MLP2] please.
result: 3.2

Where do the numbers come from? From the supplement of paper PMC9732359.
